TEST: in vivo
Design: species or system mouse
TEST CONTEXT: mouse, in vivo, iv, 250 mg/kg, 72 min; mice, 250 mg/kg iv; read-out: Serum levels
MEASURE: concentration at 1.2 h (µg/mL)
Give just the number in µg/mL; leave the unit off.

Give me measured concentration at 1.2 h, please, for this compound: [N-]=[N+]=N[C@H]1C[C@H](n2ccc(=O)[nH]c2=O)O[C@@H]1CO
54.8

---

TEST: in vivo
Design: species or system mouse
TEST CONTEXT: mouse, in vivo, iv, 250 mg/kg, 34 min; mice, 250 mg/kg iv; read-out: Brain levels
MEASURE: concentration at 34 min

Please report concentration at 34 min for the following compound: [N-]=[N+]=N[C@H]1C[C@H](n2ccc(=O)[nH]c2=O)O[C@@H]1CO
5670 ng/mL

---

TEST: in vivo
Assay type: in vivo, rhesus monkey
TEST CONTEXT: rhesus monkey, in vivo; rhesus monkeys, oral dose of 920 mg; read-out: volume of distribution (Vss)
MEASURE: Vd/F (L/kg)
Entry rule: numbers only, all in L/kg.

Report Vd/F, nothing else, for this compound: [N-]=[N+]=N[C@H]1C[C@H](n2ccc(=O)[nH]c2=O)O[C@@H]1CO
1.2

---

TEST SYSTEM: HIV RT (Human immunodeficiency virus type 1 group M subtype B)
Construct: HIV reverse transcriptase
TEST: Effect of 5'-triphosphates on HIV reverse transcriptase (Table 6)
Type: biochemical
TEST CONTEXT: 5'-triphosphate; read-out: HIV RT K1
MEASURE: pKi
# pKi is unitless: minus log10 of the molar concentration; print number only

Let me know recorded pKi for [N-]=[N+]=N[C@H]1C[C@H](n2ccc(=O)[nH]c2=O)O[C@@H]1COP(=O)(O)OP(=O)(O)OP(=O)(O)O , thanks.
8.05

---

Tested on: HIV (LAV-1)
TEST: Median effective antiviral concentration against HIV (Table 5)
Assay type: cell-based
TEST CONTEXT: Human immunodeficiency virus 1
MEASURE: pEC50
In simple prose, pEC50 is minus the logarithm base ten of a concentration in moles per litre.

[N-]=[N+]=N[C@H]1C[C@H](n2ccc(N)nc2=O)O[C@@H]1CO = 6.41

Please give the documented pEC50 of Cc1cn([C@H]2C[C@H](N=[N+]=[N-])[C@@H](CO)O2)c(=O)[nH]c1=O [AZT, 3'-azido-3'-deoxythymidine, reference compound]
8.70

---

TEST: in vivo
Design: species or system mouse
TEST CONTEXT: mouse, in vivo, iv, 250 mg/kg, 31 min; mice, 250 mg/kg iv; read-out: Serum levels
MEASURE: concentration at 31 min
Please don't drop the unit; write it after the number.

Supply measured concentration at 31 min of [N-]=[N+]=N[C@H]1C[C@H](n2ccc(=O)[nH]c2=O)O[C@@H]1CO in your reply.
91 µg/mL

Attribution: patent US4916122A
